assay.protocol: Compound solubility in water
quantity: solubility (µg/mL)

CN(C)CC1CN(c2cccc3c2ncn3C(=O)NCCCc2ccccc2)C1: 21

I. CC(C)CCNC(=O)n1cnc2c(N3C[C@H]4C[C@@H]3CO4)cccc21
II. CNC1CCN(c2cccc3c2ncn3C(=O)NCC#CC(C)C)C1 (centres unmarked)
III. COc1nc2cc(F)c(N3CCN(C4CN(C)C4)CC3)cc2n1C(=O)NCC#CC(C)C [Example 320b]
Task item: // ascending sort on recorded solubility Answer with the labels in sequence, matching the requested order.
Reply: I, II, III
(I: 12 µg/mL, II: 29 µg/mL, III: 42 µg/mL)

P. Cc1ccc(CNC(=O)n2cnc3c(N4CCN(C)CC4)cccc32)cc1
Q. COc1cccc2c1ncn2C(=O)NCCc1ccccc1
Task item: I need your help: which of the pair P , Q has higher solubility? Identify your selection by its label.
Reply: P
(P: 16 µg/mL, Q: 7.8 µg/mL)

* * *

IC50 listing for selected compounds.
system: acid ceramidase (Homo sapiens)
Construct: Cell lysates overexpressing acid ceramidase were used as the enzyme source; expressed in transfected cells
Sequence (Q13510 22-395): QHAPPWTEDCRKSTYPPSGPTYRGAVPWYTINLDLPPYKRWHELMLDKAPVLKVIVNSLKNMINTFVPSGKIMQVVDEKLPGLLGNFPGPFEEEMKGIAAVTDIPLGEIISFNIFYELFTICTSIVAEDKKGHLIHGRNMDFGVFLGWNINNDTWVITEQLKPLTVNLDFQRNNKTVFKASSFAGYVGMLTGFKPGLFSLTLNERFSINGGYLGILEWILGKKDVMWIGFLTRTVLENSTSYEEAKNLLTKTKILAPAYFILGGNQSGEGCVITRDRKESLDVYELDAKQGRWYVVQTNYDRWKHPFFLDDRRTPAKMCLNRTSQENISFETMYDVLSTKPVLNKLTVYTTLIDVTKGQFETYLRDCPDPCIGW
assay.protocol: Acid ceramidase inhibition, biochemical fluorescent assay with cell lysates overexpressing acid ceramidase, substrate Rbm14-12
condition.context: substrate Rbm14-12 6.3 μM, pH 4.5

// known answers, use as guide
COc1nc2cc(N3CCC4(CC3)COC4)ccc2n1C(=O)NCCCc1ccccc1 [Example 238b]: 200 to 1000 nM
COc1nc2cc(N3CCOCC3)ccc2n1C(=O)NCCC1CC1C(F)(F)F (stereo not shown) [Example 230b]: 200 to 1000 nM

IC50 recorded for this compound, COc1nc2cc(N3CCOCC3)ccc2n1C(=O)NCCCOC(F)(F)F [Example 233b] , is 200 to 1000 nM

* * *

system: acid ceramidase (Homo sapiens, UniProt Q13510)
Construct: Cell lysates overexpressing acid ceramidase were used as the enzyme source; expressed in transfected cells
Sequence (Q13510 22-395): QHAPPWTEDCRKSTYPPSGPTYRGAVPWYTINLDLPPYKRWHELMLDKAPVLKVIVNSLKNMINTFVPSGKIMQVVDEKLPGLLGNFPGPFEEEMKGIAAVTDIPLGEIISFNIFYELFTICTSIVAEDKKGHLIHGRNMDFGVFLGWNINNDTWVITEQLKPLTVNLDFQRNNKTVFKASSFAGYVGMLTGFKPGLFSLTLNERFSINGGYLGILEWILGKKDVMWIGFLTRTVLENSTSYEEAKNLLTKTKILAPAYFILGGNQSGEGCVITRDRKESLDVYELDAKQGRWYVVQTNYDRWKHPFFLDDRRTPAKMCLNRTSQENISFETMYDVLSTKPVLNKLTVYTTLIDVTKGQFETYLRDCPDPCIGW
assay.protocol: Acid ceramidase inhibition, biochemical fluorescent assay with cell lysates overexpressing acid ceramidase, substrate Rbm14-12
condition.context: substrate Rbm14-12 6.3 μM, pH 4.5, 1 hr preincubation at RT
quantity: IC50

// known answers, use as guide
Cc1nc2ccccc2n1C(=O)NCCc1ccccc1: < 200 nM
O=C(NCCOc1ccccc1)n1cnc2ccc(C(F)(F)F)cc21 [Example 46b]: < 200 nM

IC50 recorded for this molecule, CC(C)CNC(=O)n1cnc2cc(-c3cncnc3)c(C(F)(F)F)cc21 [Example 77a] , is < 200 nM

IC50 recorded for this molecule, CN1CCN(CCNC(=O)n2cnc3cc(C(F)(F)F)ccc32)CC1 , is > 1000 nM

IC50 recorded for this molecule, CN1CCC(Oc2cccc3c2ncn3C(=O)NCCc2ccccc2)CC1 , is < 200 nM

IC50 recorded for this molecule, CN1CCN(C2CN(c3cccc4c3ncn4C(=O)NCCC#Cc3ccccc3)C2)CC1 , is < 200 nM

IC50 recorded for this molecule, O=C(NCCc1ccccc1)n1cnc2cc(-c3ccccn3)c(Cl)cc21 , is < 200 nM

IC50 recorded for this molecule, CN1CCC2(CC1)CN(c1cccc3c1ncn3C(=O)NCCC#Cc1ccccc1)C2 , is < 200 nM

IC50 recorded for this molecule, CCCCNC(=O)n1cnc2cc(N3CCC(N4CCOCC4)CC3)ccc21 [Example 101b] , is < 200 nM

IC50 recorded for this molecule, CN(C)C1CN(c2cccc3c2ncn3C(=O)NCCOc2ccccc2)C1 , is < 200 nM

IC50 recorded for this molecule, CC(C)CCNC(=O)n1c(=O)n(C)c2ncc(-c3cccnc3)cc21 , is > 1000 nM

IC50 recorded for this molecule, O=C(NCCc1ccccc1)n1cnc2ncc(C(F)(F)F)cc21 , is < 200 nM

* * *

system: acid ceramidase (Homo sapiens)
Construct: Cell lysates overexpressing acid ceramidase were used as the enzyme source; expressed in transfected cells
Sequence (Q13510 22-395): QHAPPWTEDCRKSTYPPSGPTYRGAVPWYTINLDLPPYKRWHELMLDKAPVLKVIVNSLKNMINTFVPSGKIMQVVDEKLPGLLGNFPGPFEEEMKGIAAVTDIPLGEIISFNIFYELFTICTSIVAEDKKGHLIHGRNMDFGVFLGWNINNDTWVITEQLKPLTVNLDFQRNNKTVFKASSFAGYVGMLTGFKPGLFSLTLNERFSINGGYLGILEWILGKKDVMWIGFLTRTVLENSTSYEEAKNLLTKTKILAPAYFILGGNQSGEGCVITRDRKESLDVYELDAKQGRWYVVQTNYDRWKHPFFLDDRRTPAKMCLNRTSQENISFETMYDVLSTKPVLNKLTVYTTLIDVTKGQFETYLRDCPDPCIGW
assay.protocol: Acid ceramidase inhibition, biochemical fluorescent assay with cell lysates overexpressing acid ceramidase, substrate Rbm14-12
condition.context: substrate Rbm14-12 6.3 μM, pH 4.5
quantity: IC50

// known answers, use as guide
CN1CCN(c2cccc3c2ncn3C(=O)NCCCc2ccccc2)CC1CF (centres unmarked) [Example 277]: < 200 nM
CC(C)CCNC(=O)n1cnc2c(N3CCN(C)C(C)C3)cccc21 (centres unmarked) [Example 197]: 200 to 1000 nM
CCN1CCN(c2cccc3c2ncn3C(=O)NCCCc2ccccc2)CC1 [Example 249]: < 200 nM
COc1nc2ccc(N3CCOCC3)cc2n1C(=O)NCCCc1ccc(F)nc1 [Example 232a]: > 1000 nM
CC(C)C#CCNC(=O)n1cnc2c(N3CCN(C4COC4)CC3)cccc21 [Example 307]: < 200 nM
CC(C)CC1(CNC(=O)n2cnc3c(N4CCOCC4)cccc32)CC1 [Example 227]: < 200 nM
COc1nc2cc(N3CCOCC3)ccc2n1C(=O)NCC1CC1Cc1ccccc1 (centres unmarked) [Example 231b]: < 200 nM

Switching to the query record.
IC50 recorded for this compound, CN1CCN(c2cccc3c2ncn3C(=O)NCCOc2ccccc2)CC1 [Example 257] , is < 200 nM

* * *

assay.protocol: Compound solubility in water
quantity: solubility (µg/mL)

// known answers, use as guide
O=C(NCCCc1ccccc1)n1cnc2c(N3CCOCC3)cccc21: 1.4
CN1CCN(c2cccc3c2ncn3C(=O)NCCCC2(C(F)(F)F)CC2)CC1: 20
CCOc1nc2cccnc2n1C(=O)NCCCc1ccccc1 [Example 91b]: 21.1
CN1CC(N2CCN(c3cccc4c3ncn4C(=O)NCCC#Cc3ccccc3)CC2)C1: 24
CC(=O)N1CCN(c2cccc3c2ncn3C(=O)NCCC(C)C)CC1: 26

A. CN1CCN(c2cccc3c2ncn3C(=O)NCc2ccn3cccc3c2)CC1
B. COc1nc2c(N3CCOCC3)cccc2n1C(=O)NCCC(C)C
C. O=C(NCCOc1ccccc1)n1cnc2ccccc21
D. COc1nc2ccccc2n1C(=O)NCCc1ccccc1
E. CC(C)C(=O)N1CCN(c2cccc3c2ncn3C(=O)NCCCC2(C(F)(F)F)CC2)CC1
Task item: // ascending sort on recorded solubility Answer with the labels in sequence, matching the requested order.
Reply: E, C, D, B, A
(E: 1 µg/mL, C: 2 µg/mL, D: 10 µg/mL, B: 17 µg/mL, A: 25 µg/mL)

A. CN1CCN(CCNC(=O)n2cnc3cc(C(F)(F)F)ccc32)CC1
B. COc1cc2c(cc1-c1cncnc1)ncn2C(=O)NCC(C)C [Example 79a]
Task item: I need your help: which of the pair A , B has higher solubility? Identify your selection by its label.
Reply: A
(A: 32.7 µg/mL, B: 22.2 µg/mL)

A. COc1nc2ccc(-c3cncnc3)cc2n1C(=O)NCC(C)C [Example 81a]
B. CCCCNC(=O)n1cnc2cc(C(F)(F)F)ccc21 [Example 49a]
C. O=C(NCCc1ccccc1)n1cnc2cc(F)ccc21
Task item: Rank entries according to their solubility, from the largest number down. Answer with the labels in sequence, matching the requested order.
Reply: A, B, C

a. COc1nc2ccc(N3CCN(C(C)=O)CC3)cc2n1C(=O)NCCCc1ccccc1 [Example 236b]
b. COc1cccc2c1nc(OC)n2C(=O)NCCC(C)C
c. CCOc1nc2c(Cl)cccc2n1C(=O)NCCc1ccccc1
d. COc1nc2cc(F)c(N3CCOCC3)cc2n1C(=O)NCCOc1ccccc1 [Example 335a]
Task item: // ascending sort on recorded solubility Answer with the labels in sequence, matching the requested order.
Reply: c, d, b, a

P. O=C(NCCCC(F)(F)F)n1cnc2ccccc21
Q. COc1nc2cc(N3CCOCC3)ccc2n1C(=O)NCCC1CC1C(F)(F)F (stereo not drawn) [Example 230b]
Task item: I need your help: which of the pair P , Q has higher solubility? Identify your selection by its label.
Reply: Q
(Q: 32 µg/mL, P: 21.1 µg/mL)

A. CN1CCN(c2cccc3c2ncn3C(=O)NCCOc2ccccc2)CC1CC#N (stereo not drawn)
B. O=C(NCCCC1CC1)n1cnc2c(N3CCOCC3)cccc21
Task item: I need your help: which of the pair A , B has higher solubility? Identify your selection by its label.
Reply: A
(A: 26 µg/mL, B: 15 µg/mL)

a. COc1nc2c(N3CCOCC3)cncc2n1C(=O)NCCC(C)C
b. CCCCNC(=O)n1cnc2ccc(C(F)(F)F)cc21 [Example 49b]
Task item: I need your help: which of the pair a , b has higher solubility? Identify your selection by its label.
Reply: a
(a: 26 µg/mL, b: 12.6 µg/mL)

These data points were gathered from patent US20220380319A1.
